target: Fibroblast growth factor 10 (Homo sapiens); assay: FGF10 binders on small-molecule microarrays, primary screen, biochemical, small-molecule microarray, 635 nm fluorescence (AID 1102); conditions: FGF10 binding, fluorescence 635 nm, higher = more signal
Answer each item with its documented composite z-score.
Answers are plain numbers.

O=C1OCCC/C=C\[C@H]2OC34C=CCN(Cc5ccccc5)C(=O)[C@H]3N(CCCCCCO)C(=O)[C@@H]4C12 (some centres undefined): -0.942
COc1ccc(C(O)C2C=CC3C(=O)NC(=O)C3N2Nc2ccccn2)c2ccccc12 (centres undefined): 0.392
[N-]=[N+]=NCc1ccccc1[C@@H]1OC(c2ccc(OCCCO)cc2)=N[C@]1(CCS(=O)(=O)c1ccccc1)C(=O)NCCN1CCOCC1: 1.42

The reported composite z-score value, Fibroblast growth factor 10 (Homo sapiens), for CC(C)(C)C(=O)N[C@@H](c1ccc(Cl)cc1)[C@]1(C)C[C@H]1C1CCCCC1 reads 0.521

###

experiment: MM1S myeloma cell viability, profiling panel, resazurin fluorescence, basal, 24 h, PK04 Diversity Set (AID 1174); conditions: higher = more signal, called active from +8 up or from −8 down;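 further: MM1S multiple myeloma cell line; test concentration not given here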
MEASUREMENT NAME: z-score
One number for each entry.

These recorded examples may help you get a feel for the data.
CN1C(=O)C2C=CC(C(O)c3cc(C(F)(F)F)cc(C(F)(F)F)c3)N(N3CCCCC3)C2C1=O (stereo unspecified): -0.136
CC(C)C[C@@H]1NC(=O)[C@H]2C[C@@H](C(=O)NCCCCCCN(C)C)[C@@H](c3ccc(O)cc3)N2C1=O: -0.671
COCC(=C=CC[C@@H](O)c1ccccc1OCCO)C[C@@H](O)c1cc(Cl)cc(Cl)c1O: -0.541
COC(=O)[C@@]1(Cc2ccc(F)cc2)[C@H]2c3cc(C(=O)N(C)C)n(Cc4nc5ccccc5[nH]4)c3C[C@H]2CN1C(=O)c1ccccc1: -0.534
C=CCNC(=O)[C@H]1[C@@H]2C(=O)O[C@@H](c3ccccc3)[C@@H](c3ccccc3)N2[C@@H](c2ccc(OCCO)cc2)[C@]12C(=O)Nc1ccc(C#CC3=CCCCC3)cc12: -1.21
[N-]=[N+]=Nc1ccccc1C[C@]1(C(=O)NCC(O)CO)N=C(c2ccc(OCCCO)cc2)O[C@H]1c1ccccc1N=[N+]=[N-] (stereo partly specified): -2.08

Hey, quick one: what's z-score for each of these?
1. CC(C)(C)OC(=O)CC[C@]1(C(=O)O)N=C(c2ccc(OCCCO)cc2)O[C@H]1c1ccccc1N=[N+]=[N-]
2. COc1ccc(C(O)C2C=CC3C(=O)NC(=O)C3N2Nc2ccccn2)cc1 (stereo unspecified)
3. C=C(COC)/C(=C/C[C@H](OC(=O)c1ccncc1)c1ccc(OCCO)cc1)c1cnc2ccccc2c1
4. CC(C)(C)OC(=O)CC[C@]1(C(=O)NCC(O)CO)COC(c2ccc(OCCCO)cc2)=N1 (stereo partly specified)

1. -1.32
2. -0.285
3. -0.389
4. 0.198

So for CCOc1cc(C(O)C2C=CC3C(=O)N(c4ccccc4)C(=O)C3N2Nc2ccccc2)ccc1O (stereo unspecified) , the logged z-score turned out to be -1.07

###

assay: basal 3T3-L1 adipocyte mitochondrial potential changes, profiling panel, cell-based, JC-1 fluorescence, 3T3-L1 adipocytes, 24 h, 100 nL compound (AID 1168); details: JC-1 mitochondrial fluorescence, higher = more signal, called active from +8 up or from −8 down; further: test concentration not given here
The source made the active and inactive calls.
MEASUREMENT NAME: z-score

Consider the worked cases shown below.
C=CCNC(=O)[C@@H]1[C@H]2C(=O)O[C@H](c3ccccc3)[C@H](c3ccccc3)N2[C@H](c2ccc(OCCO)cc2)[C@@]12C(=O)Nc1ccc(C#Cc3ccc(OC)cc3)cc12: 1.05 (inactive)
COc1cc2c(cc1OC)CN(C(=O)[C@H]1[C@@H]3C(=O)O[C@@H](c4ccccc4)[C@@H](c4ccccc4)N3[C@@H](c3ccc(O)cc3)[C@]13C(=O)Nc1ccc(C#CCNC(N)=O)cc13)CC2: 0.635 (inactive)

For each of the molecules below, note its z-score.
1. CCCN1C(=O)[C@]2(CCS(=O)(=O)c3ccccc3)N=C(c3ccc(OCCCO)cc3)O[C@@H]2c2ccccc21
2. COC(=O)[C@@]1(Cc2ccccc2)[C@H]2c3cc(C(=O)N4CCCC4)n(Cc4cccc5ccccc45)c3C[C@H]2CN1C(=O)c1ccccc1
3. COC(=O)[C@@]1(Cc2ccc(OC)cc2)[C@H]2c3cc(C(=O)N4CCCC4)n(Cc4ccc(OC)c(OC)c4)c3C[C@H]2CN1C(=O)c1ccccc1
4. COC(=O)[C@@]1(Cc2ccc(F)cc2)[C@H]2c3cc(C(=O)N4CCCC4)n(Cc4cc(C)n(C)n4)c3C[C@H]2CN1C(=O)c1ccccc1
5. Cc1ccc(S[C@]2(C(=O)NCCN3CCOCC3)CC(=O)N(Cc3ccccc3)[C@@H]2c2ccc(CO)cc2I)cc1
6. [N-]=[N+]=NCc1ccccc1[C@H]1OC(c2ccc(OCCCO)cc2)=N[C@@]1(Cc1ccccc1)C(=O)NCc1ccccc1
7. CCCC[C@@H]1C[C@H]1[C@@H](NC(=O)c1ccco1)c1ccc(Cl)cc1
8. CCCCC(=C=CC[C@@H](O)c1ccccc1OCCO)CCO

1: -0.494 (inactive); 2: -2.12 (inactive); 3: 0.0331 (inactive); 4: -1.13 (inactive); 5: -0.688 (inactive); 6: 0.544 (inactive); 7: -0.732 (inactive); 8: -0.321 (inactive)

Give me z-score for each of these molecules, listed below.
1. CCOC(=O)C[C@H]1[C@H](OC(=O)c2cc3ccccc3oc2=O)[C@@H](NC(=O)Cc2ccc(OC)cc2)c2cc(OCCCO)ccc2N1C(=O)c1ccccc1
2. CC(C)N1C(=O)[C@@]2(Cc3ccccc31)c1ccccc1C(=O)N(C1CCCCC1)[C@H]2c1ccc(CO)cc1
3. C=C(CCCC)C(=O)CC[C@H](OC(C)=O)c1cccc(OCCO)c1
4. CCOC(=O)C=Cc1cc([N+](=O)[O-])ccc1O
5. O=C1OCCC=C[C@H]2OC34C=CCN(CCN5CCOCC5)C(=O)[C@H]3N(CCCCCCO)C(=O)[C@@H]4C12 (stereo partly drawn)
6. CCCCc1cn(C[C@H](Cc2ccccc2)NC(=O)N[C@H](CO)CCc2oc(C(C)=O)c(C(=O)OC)c2C(=O)OC)nn1
7. O=C1C2C=CC(C(O)C3CCCCC3)N(Nc3ccc([N+](=O)[O-])cc3)C2C(=O)N1c1ccccc1 (stereo not drawn)
8. COc1ccc(C(O)C2C=CC3C(=O)N(c4ccccc4)C(=O)C3N2Nc2ccc(C(C)C)cc2)cc1OCc1ccccc1 (stereo not drawn)

1: -0.111 (inactive); 2: 0.327 (inactive); 3: 0.906 (inactive); 4: 0.428 (inactive); 5: -0.347 (inactive); 6: 0.273 (inactive); 7: -2.66 (inactive); 8: -0.116 (inactive)

For every item below, please supply its z-score.
1. C=CCOC(=O)[C@H]1[C@@H]2C(=O)O[C@@H](c3ccccc3)[C@@H](c3ccccc3)N2[C@@H](c2ccc(OCCOC(=O)[C@@H]3C[C@@H]4C(=O)N[C@@H](CCCCN(C)C)C(=O)N4[C@@H]3c3ccc(O)cc3)cc2)[C@]12C(=O)Nc1ccc(I)cc12
2. CN1C(=O)C2C=CC(C(O)c3ccccc3)N(Nc3ccccc3)C2C1=O (stereo not drawn)

0.832 (inactive)
-0.441 (inactive)

Provide z-score values for the following items, in order.
1. COc1ccc(C(=O)Nc2ccc(CN3C(=O)[C@@]4(O[C@@H](CCn5cc([C@H](O)c6ccccc6)nn5)[C@H]([Si](C)(C)c5ccc(OC)cc5)[C@H]4C)c4ccccc43)cc2)cc1
2. CN(C)CCCCCCNC(=O)[C@@H]1C[C@@H]2C(=O)N[C@@H](CCCCN)C(=O)N2[C@@H]1c1cccc(OCCO)c1
3. C=CCC(OC(C)=O)[C@@H]1[C@@H](N(Cc2cccc3ccccc23)C(=O)c2ccc(-c3ccccc3)cc2)c2cc(OCCCO)ccc2N1C(=O)Cc1ccc(OC)cc1 (stereo partly drawn)
4. O=C1OCCC/C=C\[C@H]2OC34C=CCN(Cn5nnc6ccccc65)C(=O)[C@H]3N(CCO)C(=O)[C@@H]4C12 (stereo partly drawn)
5. COc1ccc(COC2OC[C@]3(C)[C@H]4C5=C(CN3C(=O)OC(C)(C)C)[C@H](C)C(CO)C(CO)C5CC[C@@H]24)cc1 (stereo partly drawn)
6. CN(C)CCCNC(=O)[C@@]1(C)c2ccccc2C(=O)N(Cc2cc(F)cc(C(F)(F)F)c2)[C@H]1c1ccc(CO)cc1

["1.17 (inactive)", "0.247 (inactive)", "0.324 (inactive)", "0.192 (inactive)", "-0.685 (inactive)", "0.235 (inactive)"]

For each of the items listed, what is its z-score?
1. O=C1O[C@@H](c2ccccc2)[C@@H](c2ccccc2)N2[C@@H](c3ccccc3OCCO)[C@]3(C(=O)Nc4ccc(C#CC5=CCCCC5)cc43)[C@@H](C(=O)Nc3nc4ccccc4s3)[C@H]12
2. O=C1O[C@H](c2ccccc2)[C@H](c2ccccc2)N2[C@H]1[C@@H](C(=O)NC[C@H](O)c1ccccc1)[C@]1(C(=O)Nc3ccccc31)[C@H]2c1ccc(OCCO)cc1

1. -0.353 (inactive)
2. 1.95 (inactive)
